Measured inhibition at 30 µM accompanies every entry in the list below.
tested.on: DYRK1A (Homo sapiens (Human), UniProt Q13627)
test.summary: FRET-based LanthaScreen Eu Kinase Binding Assay (Life Technologies)
study.conditions: read-out: Screening (30 μM) LifeTech: % DYRK1A inhibition at 30 μM
Quick note: give the figure in %, leave out the unit.

Recorded inhibition at 30 µM (compound O=c1[nH]c2ccc(C3=NN=C(NCc4ccc(F)cc4)SC3)cc2[nH]1 [Compound 3-15] ): 95

Recorded inhibition at 30 µM (compound O=c1[nH]c2ccc(C3=NN=C(NCc4cccc(C(F)(F)F)c4)SC3)cc2[nH]1 [Compound 3-19] ): 20

Recorded inhibition at 30 µM (compound O=c1[nH]c2ccc(C3=NN=C(NCc4ccc(C(F)(F)F)cc4)SC3)cc2[nH]1 [Compound 3-18] ): 53

Recorded inhibition at 30 µM (compound N#Cc1ccc(CNC2=NN=C(c3ccc4[nH]c(=O)[nH]c4c3)CS2)cc1 [Compound 3-21] ): 47

Recorded inhibition at 30 µM (compound O=c1[nH]c2ccc(C3=NN=C(NCc4cccnc4)SC3)cc2[nH]1 [Compound 3-23] ): 74

Recorded inhibition at 30 µM (compound O=c1[nH]c2ccc(C3=NN=C(Nc4ccccc4)SC3)cc2[nH]1 [Compound 3-28] ): 39

Recorded inhibition at 30 µM (compound O=c1[nH]c2ccc(C3=NN=C(NCc4ccccc4C(F)(F)F)SC3)cc2[nH]1 [Compound 3-20] ): 24

Recorded inhibition at 30 µM (compound O=c1[nH]c2ccc(C3=NN=C(NCCc4ccccc4)SC3)cc2[nH]1 [Compound 3-34] ): 61

Recorded inhibition at 30 µM (compound N#Cc1cccc(CNC2=NN=C(c3ccc4[nH]c(=O)[nH]c4c3)CS2)c1 [Compound 3-22] ): 69

Recorded inhibition at 30 µM (compound O=c1[nH]c2ccc(C3=NN=C(NCc4ccc(Cl)cc4)SC3)cc2[nH]1 [Compound 3-12] ): 93

Recorded inhibition at 30 µM (compound CC(NC1=NN=C(c2ccc3[nH]c(=O)[nH]c3c2)CS1)c1ccccc1 (stereo not shown) [Compound 3-25] ): 57

Recorded inhibition at 30 µM (compound O=c1[nH]c2ccc(C3=NN=C(NCCc4ccccn4)SC3)cc2[nH]1 [Compound 3-38] ): 87

Recorded inhibition at 30 µM (compound O=c1[nH]c2ccc(C3=NN=C(NCc4cccc5ccccc45)SC3)cc2[nH]1 [Compound 3-41] ): 11

====

tested.on: UniProtKB Q13627
test.summary: KINOMEscan Assay (DiscoverX), DYRK1A binding
study.conditions: eleven serial three fold dilutions (in duplicate)
reported.metric: log10(Kd) (log10 of the value in nM)
A value of 2 here means Kd of 100 in nM, since values are log10.

Below: 6 compounds and their reported log10(Kd).
O=c1[nH]c2ccc(C3=NN=C(NCCc4ccccc4)SC3)cc2[nH]1 [Compound 3-34] ... 3.20
O=c1[nH]c2ccc(C3=NN=C(NCc4ccccc4Cl)SC3)cc2[nH]1 [Compound 3-14] ... 2.92
O=c1[nH]c2ccc(C3=NN=C(NCc4cccc5ccccc45)SC3)cc2[nH]1 [Compound 3-41] ... 3.86
O=c1[nH]c2ccc(C3=NN=C(NCCc4ccccn4)SC3)cc2[nH]1 [Compound 3-38] ... 3.20
O=c1[nH]c2ccc(C3=NN=C(NCc4cccc(F)c4)SC3)cc2[nH]1 [Compound 3-16] ... 2.95
O=c1[nH]c2ccc(C3=NN=C(NCc4cccc(Cl)c4)SC3)cc2[nH]1 [Compound 3-13] ... 2.62

Recorded log10(Kd) (compound O=c1[nH]c2ccc(C3=NN=C(Nc4cccc(C(F)(F)F)c4)SC3)cc2[nH]1 [Compound 3-30] ): 4.15

Recorded log10(Kd) (compound CC(NC1=NN=C(c2ccc3[nH]c(=O)[nH]c3c2)CS1)c1ccc(F)cc1 (stereo not shown) [Compound 3-26] ): 3.36

Recorded log10(Kd) (compound NC(=O)c1cccc(CNC2=NN=C(c3ccc4[nH]c(=O)[nH]c4c3)CS2)c1 [Compound 4-2] ): 2.64

Recorded log10(Kd) (compound O=c1[nH]c2ccc(C3=NN=C(NCc4ccncc4)SC3)cc2[nH]1 [Compound 3-24] ): 3.34

Recorded log10(Kd) (compound O=c1[nH]c2ccc(C3=NN=C(NCCc4cccnc4)SC3)cc2[nH]1 [Compound 3-39] ): 3.34

Recorded log10(Kd) (compound O=c1[nH]c2ccc(C3=NN=C(Nc4cccc(F)c4)SC3)cc2[nH]1 [Compound 3-29] ): 3.85

Recorded log10(Kd) (compound O=c1[nH]c2ccc(C3=NN=C(NCc4cccnc4)SC3)cc2[nH]1 [Compound 3-23] ): 2.93

Recorded log10(Kd) (compound O=c1[nH]c2ccc(C3=NN=C(NCc4ccccc4C(F)(F)F)SC3)cc2[nH]1 [Compound 3-20] ): 3.89

Recorded log10(Kd) (compound O=c1[nH]c2ccc(C3=NN=C(NCc4ccc(Cl)cc4)SC3)cc2[nH]1 [Compound 3-12] ): 2.27

Recorded log10(Kd) (compound O=c1[nH]c2ccc(C3=NN=C(Nc4ccccc4)SC3)cc2[nH]1 [Compound 3-28] ): 4.28

====

tested.on: DYRK1A (Homo sapiens (Human), UniProt Q13627)
test.summary: KINOMEscan Assay (DiscoverX), DYRK1A binding
study.conditions: read-out: Screening (30 μM) DiscoverX: primary screen binding interactions, % DMSO Ctrl
Measured remaining binding at 30 µM accompanies every entry in the list below.
Quick note: give the figure in %, leave out the unit.

CC(C)(C)NC1=NN=C(c2ccc3[nH]c(=O)[nH]c3c2)CS1 [Compound 3-7] ... 0.75
CC(C)NC1=NN=C(c2ccc3[nH]c(=O)[nH]c3c2)CS1 [Compound 3-6] ... 2.3
CCCNC1=NN=C(c2ccc3[nH]c(=O)[nH]c3c2)CS1 [Compound 3-4] ... 2.9
N#Cc1ccc(CNC2=NN=C(c3ccc4[nH]c(=O)[nH]c4c3)CS2)cc1 [Compound 3-21] ... 12

Recorded remaining binding at 30 µM (compound O=c1[nH]c2ccc(C3=NN=C(Nc4ccccc4)SC3)cc2[nH]1 [Compound 3-28] ): 41

Recorded remaining binding at 30 µM (compound O=c1[nH]c2ccc(C3=NN=C(NCc4cccc(C(F)(F)F)c4)SC3)cc2[nH]1 [Compound 3-19] ): 23

====

Measured remaining binding at 30 µM accompanies every entry in the list below.
tested.on: DYRK1A (Homo sapiens (Human))
test.summary: KINOMEscan Assay (DiscoverX), DYRK1A binding
study.conditions: read-out: Screening (30 μM) DiscoverX: primary screen binding interactions, % DMSO Ctrl

O=c1[nH]c2ccc(C3=NN=C(NCc4cccc5ccccc45)SC3)cc2[nH]1 ... 36%
CC(NC1=NN=C(c2ccc3[nH]c(=O)[nH]c3c2)CS1)c1ccccc1 (stereo not shown) ... 3.7%
O=c1[nH]c2ccc(C3=NN=C(NCc4ccccc4C(F)(F)F)SC3)cc2[nH]1 ... 38%

The record that follows has no remaining binding at 30 µM shown yet.
Recorded remaining binding at 30 µM (molecule `O=c1[nH]c2ccc(C3=NN=C(NCc4ccc(Cl)cc4)SC3)cc2[nH]1` ): 19%

====

tested.on: DYRK1A (Homo sapiens (Human), UniProt Q13627)
test.summary: FRET-based LanthaScreen Eu Kinase Binding Assay (Life Technologies)
study.conditions: 30 μM single concentration; read-out: Screening (30 μM) LifeTech: % DYRK1A inhibition at 30 μM
Decision: inhibition at 30 µM compared against 60%; not below it gives t, below it gives f.

Before answering, review these 4 worked examples.
CNC1=NN=C(c2ccc3[nH]c(=O)[nH]c3c2)CS1 ... t
CCNC1=NN=C(c2ccc3[nH]c(=O)[nH]c3c2)CS1 ... t
CC(C)(C)NC1=NN=C(c2ccc3[nH]c(=O)[nH]c3c2)CS1 ... f
CCCCNC1=NN=C(c2ccc3[nH]c(=O)[nH]c3c2)CS1 ... f

# next compound below
Kindly determine if inhibition at 30 µM recorded for `CCCNC1=NN=C(c2ccc3[nH]c(=O)[nH]c3c2)CS1` is above or exactly 60%.
f

====

tested.on: DYRK1A (Homo sapiens (Human))
test.summary: KINOMEscan Assay (DiscoverX), DYRK1A binding
study.conditions: read-out: Screening (30 μM) DiscoverX: primary screen binding interactions, % DMSO Ctrl
Rule: measured remaining binding at 30 µM below 0.5% gets condition met; anything equal to or greater than 0.5% gets condition not met.

Before answering, review these 3 worked examples.
N#Cc1cccc(CNC2=NN=C(c3ccc4[nH]c(=O)[nH]c4c3)CS2)c1 ... condition not met
O=c1[nH]c2ccc(C3=NN=C(NCc4ccc(C(F)(F)F)cc4)SC3)cc2[nH]1 ... condition not met
CCNC1=NN=C(c2ccc3[nH]c(=O)[nH]c3c2)CS1 ... condition met

Consider the compound `O=c1[nH]c2ccc(C3=NN=C(NCCc4ccccn4)SC3)cc2[nH]1` . Is its remaining binding at 30 µM strictly less than 0.5%?
condition not met

Consider the compound `O=c1[nH]c2ccc(C3=NN=C(NCc4cccnc4)SC3)cc2[nH]1` . Is its remaining binding at 30 µM strictly less than 0.5%?
condition not met

Consider the compound `O=c1[nH]c2ccc(C3=NN=C(NCc4ccc(F)cc4)SC3)cc2[nH]1` . Is its remaining binding at 30 µM strictly less than 0.5%?
condition not met

Consider the compound `CCCCNC1=NN=C(c2ccc3[nH]c(=O)[nH]c3c2)CS1` . Is its remaining binding at 30 µM strictly less than 0.5%?
condition met
